Exercise: for every item that follows, state its recorded IC50.
Target: hMAO-A (Homo sapiens)
Sequence (P21397 whole entry): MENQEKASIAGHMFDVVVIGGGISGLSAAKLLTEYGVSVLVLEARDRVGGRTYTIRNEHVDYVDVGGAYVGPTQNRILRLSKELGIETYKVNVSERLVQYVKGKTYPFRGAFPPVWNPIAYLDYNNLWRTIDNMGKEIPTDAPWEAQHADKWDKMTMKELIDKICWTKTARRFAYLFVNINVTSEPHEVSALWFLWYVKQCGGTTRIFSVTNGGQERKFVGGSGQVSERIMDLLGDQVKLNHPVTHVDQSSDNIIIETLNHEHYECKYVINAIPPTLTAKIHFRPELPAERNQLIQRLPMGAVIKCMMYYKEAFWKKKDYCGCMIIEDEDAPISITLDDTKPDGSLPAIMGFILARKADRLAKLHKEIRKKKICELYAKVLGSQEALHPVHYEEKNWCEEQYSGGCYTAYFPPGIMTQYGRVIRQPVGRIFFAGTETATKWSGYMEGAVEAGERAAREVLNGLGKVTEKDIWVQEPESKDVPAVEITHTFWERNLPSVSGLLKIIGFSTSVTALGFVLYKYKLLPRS
Assay: hMAO-A inhibitory activity
Type: biochemical
Settings: mean ± S.D., three experiments in triplicate; read-out: IC50 (µM) hMAO-A
Give your result in µM as a bare value.

Can you share its IC50? I mean this molecule: C[n+]1[c]([Au-][O]C(=O)[C@@H]2CCCN2C(=O)OC(C)(C)C)n(CC(O)c2ccccc2)c2ccccc21 (some centres unmarked)
0.0713

One more molecule: C[n+]1c(-c2ccccc2)c(-c2ccccc2)n(CC(O)c2ccccc2)[c]1[Ag-][O]C(=O)[C@@H]1CCCN1C(=O)OC(C)(C)C (some centres unmarked)
25

One more molecule: C[n+]1ccn(CC(O)c2ccccc2)[c]1[Au-][O]C(=O)[C@@H]1CCCN1C(=O)OC(C)(C)C (some centres unmarked)
1.32

One more molecule: C[n+]1c(Cl)c(Cl)n(CC(O)c2ccccc2)[c]1[Ag-][O]C(=O)[C@@H]1CCCN1C(=O)OC(C)(C)C (some centres unmarked)
15

One more molecule: C[n+]1c(-c2ccccc2)c(-c2ccccc2)n(CC(O)c2ccccc2)[c]1[Au-][O]C(=O)[C@@H]1CCCN1C(=O)OC(C)(C)C (some centres unmarked)
1.84

One more molecule: C[n+]1[c]([Ag-][O]C(=O)[C@@H]2CCCN2C(=O)OC(C)(C)C)n(CC(O)c2ccccc2)c2ccccc21 (some centres unmarked)
3.32

One more molecule: C[n+]1c(Cl)c(Cl)n(CC(O)c2ccccc2)[c]1[Au-][O]C(=O)[C@@H]1CCCN1C(=O)OC(C)(C)C (some centres unmarked)
0.72

Reference for the values: paper PMC12249917
